# assay.remarks: in vitro
# condition.parameters: human, hepg2-a16-cd81egfp cells, % viability
measure.name: viability at 3 µM (%)
Express your answer in %, writing the number without its unit.

Below: 5 molecules and their reported viability at 3 µM.
* COc1ccc(-n2nc3c(c2NC(=O)CCl)CSC3)cc1 [MLS001066697] | 98.9
* O=C(Nc1ncccc1O)c1ccc(S(=O)(=O)Nc2ccccc2)cc1 [MLS001099437] | 94.2
* CN(CC(=O)Nc1cccc(F)c1)C(=O)c1ccc(-c2ccc(Cl)cc2)o1 [MLS001078811] | 105
* O=C(Nc1ncccc1O)c1ccc(NS(=O)(=O)c2ccc3[nH]c(=O)[nH]c3c2)cc1 [MLS001138628] | 91
* Cc1ccc(C(=O)Nc2nc(-c3ccccn3)cs2)cc1S(=O)(=O)N1CCOCC1 [MLS002157637] | 58.9

Continue with the next molecule.
Q. In one line, give reported viability at 3 µM of the entry COc1ccc([C@@]2(C(C)C)ON(c3ccccc3C(F)(F)F)C2=O)cc1 [MLS002206606] .
A. 83.8

* * *

# System: P. falciparum Dd2 Cytb V259L
# assay.remarks: SYBR Green ABS proliferation assay, NCGC00473217 selected clone F06
# Format: cell-based, Plasmodium falciparum
# condition.parameters: Plasmodium falciparum, DD2, cytochrome b mutant line, third value triple, c9; […]; read-out: log AC50, mean (converted)
// assign label 1 if AC50 falls strictly below 4 µM, else label 0 (ties count as label 0)

Worked examples follow.
• CCCN1C(CC(C)C)=N[S+](=O)([O-])c2cc(NC(=O)c3ccc(F)c(Cl)c3)ccc21 [NCGC00531769-01] = label 1
• COc1ccc(-c2nc(C3CC3)nc3c2CCN(Cc2ccccc2)CC3)cc1 [NCGC00374622-01] = label 0
• CC(C)c1nc2c(c(-c3ccc(O)cc3)n1)CCN(C(=O)c1cccc(Cl)c1)CC2 [NCGC00480331-01] = label 0
• CCCN1C(CC(C)C)=N[S+](=O)([O-])c2cc(NC(=O)c3ccc(SC)cc3)ccc21 [NCGC00531764-01] = label 1
• O=C(c1ccc(C(F)(F)F)cc1)N1CCc2nc(C3CC3)nc(-c3ccc(Cl)cc3)c2CC1 [NCGC00476963-01] = label 0

Q. Find out if reported AC50 for CCCN1C(CC(C)C)=N[S+](=O)([O-])c2cc(NC(=O)c3ccc4c(c3)OCCO4)ccc21 [NCGC00531778-01] is less than 4 µM
A. label 0

Q. Field: below-cutoff. Rule: recorded AC50 strictly less than 4 µM. Subject: CCCN1C(CC(C)C)=N[S+](=O)([O-])c2cc(NC(=O)c3ccc(Br)c(F)c3)ccc21 [NCGC00531761-01]
A. label 1

* * *

# Test system: HepG2-A16-CD81EGFP cells
# condition.parameters: nominal 3 uM (10 mM stock); 4.5 uM for 15 mM, 3.6 uM for 12 mM, 6 uM for 20 mM stock; average of 2 wells; repeat 2
Hi! Just check whether HepG2 viability signal, 3 uM, repeat 2 is below 60%. Below gives yes, equal or above gives no.

For orientation, consider the following solved cases.
* CC(C)c1ccc(CC(=O)N2CCCc3ncc(C(=O)Nc4cccnc4)cc32)cc1 | yes
* c1ccc(Nc2cc3c(cn2)CN(Cc2ccc4[nH]ccc4c2)CCN3)cc1 | yes
* COc1ccc(-c2cc(=O)oc3c4c(ccc23)OCN(Cc2ccccc2)C4)cc1 | no
* Cc1cnc(CC2CCN([S+](=O)([O-])c3ccccc3)CC2)n1Cc1ccccc1 | no
* COc1ccc(-c2noc(-c3cccn3CC(=O)Nc3ccccc3F)n2)cc1F | no

Q. Would you kindly verify if HepG2 viability signal, 3 uM, repeat 2 of `O=C(Nc1ccc2c(N3CCCC3)ncnc2c1)c1cccc(Br)c1` is strictly less than 60%?
A. no

Q. # strict comparison: is reported HepG2 viability signal, 3 uM, repeat 2 < 60%? input = `Cc1ccc(C)c(Oc2c(C(F)(F)F)oc3c(CN4CCN(C)CC4)c(O)ccc3c2=O)c1`
A. no

* * *

# Test system: Plasmodium falciparum Dd2-attB-ScDHODH (transgenic line expressing yeast DHODH), asexual blood stages
# Construct: Dd2-attB-ScDHODH, the transgenic line that expresses yeast DHODH
# assay.remarks: organism not typed
# Parameters: replicate k of 3 (each line is one of three independent assays; the three lines of one compound and parasite line follow each other)
# condition.parameters: 72 h; n = 1; read-out: Individual replicates / Log AC50 (converted)
Reported AC50 is given for each of the following compounds.
Number only, in µM; omit the unit.

- O=C(O)c1ccc(O)c2ncc(N3CCC(N4CCOCC4)CC3)cc12 [NCGC00249380-01]: 17.8
- CN(C)CCn1nc(-c2ccccc2)nc1-c1ccccc1O [NCGC00390083-01]: 7.97
- COC(=O)c1ccnc2cc(C(OCCC3CCCN3C)c3ccccc3Cl)[nH]c12 (stereo not drawn) [NCGC00479019-01]: 7.1
- CN(C)CC1CCCN(C2CCN(C(=O)c3cccc(-c4cc(O)c5ncccc5c4)c3)CC2)C1 (stereo not drawn) [NCGC00247737-01]: 6.33
- Oc1ccc(CNc2ccccn2)c2cccnc12 [NCGC00184898-01]: 14.2
- Oc1ccc(COCc2ccccc2)c2cccnc12 [MLS000034722-02]: 14.2

Q. Using known records, supply AC50 for Cc1nn2c(c1-c1ccccc1-c1ccccc1)N(CC1CC1)CCC2 [NCGC00420435-02]
A. 15.9

Q. Fill in AC50 for record O=C(O)c1ccc(N(CCN2CCC(F)(F)CC2)c2ccc(F)cc2)cn1 [NCGC00390011-01]
A. 17.8

Q. Provide one value: measured AC50 of CN(C)C(=S)SN(C)C(=O)Nc1ccccc1 [NCGC00386444-01]
A. 2.25

* * *

Reported values of viability at 48 h, 3 µM for individual entries
# assay.remarks: in vitro
# condition.parameters: human, HepG2-A16-CD81EGFP cells, uninfected
Field format: number, assumed %, no unit text.

Sample records with viability at 48 h, 3 µM:
* CCN1CCC(Nc2ccnc3cc(Cl)ccc23)CC1 | 100
* CC(C)(C)N1C(=O)c2ccc(C(=O)Nc3ccc(-c4nc5ccccc5[nH]4)cc3)cc2C1=O | 108
* CCOC(=O)c1c(S(=O)(=O)N2CCCC(C(=O)N3CCN(c4cccc(C)c4C)CC3)C2)c(C)n(C)c1C (centres unmarked) | 99.6
* COc1ccc(CN2CCCC(N3CCc4ccccc4C3)C2)c(O)c1 (centres unmarked) | 89
* COc1cc2nc(Nc3ccc(C)c(Cl)c3)nc(N)c2cc1OC | 100
* COc1ccc(C2c3[nH]c4ccccc4c3C[C@H]3C(=O)N(C4CCN(Cc5ccccc5)CC4)CC(=O)N23)c(OC)c1 (some centres unmarked) | 102
* CCN1CCN(Cc2ccc(NC(=O)c3ccc(C)c(NC(=O)c4cnc5cc(C(F)(F)F)ccc5c4O)c3)cc2C(F)(F)F)CC1 | 104

With those in mind, consider the next compound.
Q. Retrieve viability at 48 h, 3 µM measured for `CCc1nc(Nc2ccc3nccnc3c2)c2oc3ccccc3c2n1` and print it.
A. 95

* * *

# viability at 3 µM per entry
# assay.remarks: in vitro
# condition.parameters: human, hepg2-a16-cd81egfp cells, % viability
A number alone suffices; assume %.

• O=C(O)c1cc(-c2ccccc2)cc(-c2ccccc2)[n+]1Cc1ccccc1 = 98.5
• Cc1ccc(Nc2cc(C)c3ccc(O)cc3n2)cc1C = 92.2
• c1ccc2sc(Sc3ncnc4sccc34)nc2c1 = 96.9

Q. Return viability at 3 µM for the following compound: Cc1cc(OC(C)C(=O)NCCc2c[nH]c3ccccc23)c2c(C)cc(=O)oc2c1 (stereo not drawn)
A. 92.7

Q. Report viability at 3 µM for O=C1N(c2ccccc2C(F)(F)F)OC1(Cc1ccccc1)c1ccccc1 (stereo not drawn)
A. 85

Q. Give me measured viability at 3 µM, please, for this compound: `COc1cc(NC(=O)c2cc([N+](=O)[O-])ccc2NC(=O)CNC2CCCCC2)cc(OC)c1`
A. 109

* * *

# assay.remarks: in vitro
# condition.parameters: human
measure.name: viability (%)
Value expressed in %; do not type the unit.

Q. Tell us which viability value is on record for `O=C1c2ccccc2-n2c1nc1ccccc1c2=O`
A. 87

Q. Specify reported viability for the compound shown: `Cc1ccc(O)c([C@H](CCN(C(C)C)C(C)C)c2ccccc2)c1`
A. 103

* * *

# assay.remarks: in vitro
# condition.parameters: human, HepG2-A16-CD81EGFP cells, uninfected
measure.name: viability at 48 h, 1 µM (%)
Numbers only; they are read as %.

Some solved cases for reference:
• Cc1nn2c(c1-c1ccccc1-c1ccccc1)N(CCC(C)C)CCC2 = 104
• CCOC(=O)c1sc(NC(=O)CNCc2ccccn2)c(C(=O)OCC)c1C = 101
• CC(C)Oc1ccc(CCc2nnc(S)n2Cc2ccccc2)cc1 = 101
• C=CCOC(=O)C(C#N)c1nc2ccccc2nc1N1CCC(C(=O)OCC)CC1 (stereo not drawn) = 108
• Cc1cc(Nc2ccc3ccccc3c2)n2ncnc2n1 = 88

Q. Consider the molecule `CCc1cc2c(Sc3nc4ccccc4s3)ncnc2s1` . State its measured viability at 48 h, 1 µM.
A. 104

Q. Look up viability at 48 h, 1 µM of `Cn1nc(C(F)(F)F)c(-c2cccc(C(F)(F)F)c2)c1NC(=O)Nc1ccc(F)cc1` and report it.
A. 98

Q. Look up and state reported viability at 48 h, 1 µM for `CCCN1C(CC(C)C)=N[S+](=O)([O-])c2cc(NC(=O)c3cccs3)ccc21`
A. 105

Q. State its viability at 48 h, 1 µM for this molecule: `Cc1ccc(C)c(/N=N/c2nc3ccccc3n2C)c1`
A. 95

The measurements presented in this section are drawn from paper PMC7822874.
